Hello, the source for this data is ChEMBL document CHEMBL1287748, in case you need it.

Listed below: IC50 values for each entry.
- Tested on: Plasmodium falciparum
- assay-procedure: Antimalarial activity against chloroquine-sensitive Plasmodium falciparum D10 after 48 hrs
- Format: functional, organism-based
- reported-conditions: D10, 48 h
parameter: IC50 (µM)

[[record]]
smiles_notation = "COc1cc(/C=C/C(=O)/C=C/c2ccc(OC)c(OC)c2OC)ccc1OCc1cn(-c2ccnc3cc(Cl)ccc23)nn1"
value_unit = "µM"
censoring_qualifier = "="
recorded_measurement = 2.5

[[record]]
smiles_notation = "COc1ccc(C(=O)/C=C/c2ccc(OCc3cn([C@H]4C[C@H](n5cc(C)c(=O)[nH]c5=O)O[C@@H]4CO)nn3)c(OC)c2)cc1"
value_unit = "µM"
censoring_qualifier = "="
recorded_measurement = 2.9

[[record]]
smiles_notation = "C#CCOc1ccc(C(=O)/C=C/c2ccc(F)cc2)cc1OC"
value_unit = "µM"
censoring_qualifier = "="
recorded_measurement = 7.2

[[record]]
smiles_notation = "COc1cc(C(=O)/C=C/c2ccc(Cl)cc2Cl)ccc1OCc1cn([C@H]2C[C@H](n3cc(C)c(=O)[nH]c3=O)O[C@@H]2CO)nn1"
value_unit = "µM"
censoring_qualifier = "="
recorded_measurement = 3.7

[[record]]
smiles_notation = "COc1cc(C=O)ccc1OCc1cn(-c2ccnc3cc(Cl)ccc23)nn1"
value_unit = "µM"
censoring_qualifier = ">"
recorded_measurement = 20


====

- Tested on: Plasmodium falciparum
- assay-procedure: Antimalarial activity against chloroquine-resistant Plasmodium falciparum W2 after 48 hrs by FACS analysis in presence of 10 % human serum
- Type: functional, organism-based
- reported-conditions: W2, 48 h
pIC50: −log10 of the molar value.
Please mark Y if the recorded pIC50 is equal to or greater than 5, and N if it falls below.

[[record]]
smiles_notation = "COc1ccc(/C=C/C(=O)/C=C/c2ccc(OCc3cn([C@H]4C[C@H](n5cc(C)c(=O)[nH]c5=O)O[C@@H]4CO)nn3)c(OC)c2)cc1"
tested_target = "Plasmodium falciparum"
qualitative_label = "N"

[[record]]
smiles_notation = "COc1cc(/C=C/C(=O)/C=C/c2ccc(OC)c(OC)c2OC)ccc1OCc1cn(-c2ccnc3cc(Cl)ccc23)nn1"
tested_target = "Plasmodium falciparum"
qualitative_label = "N"

[[record]]
smiles_notation = "COc1ccc(/C=C/C(=O)c2ccc(OCc3cn(-c4ccnc5cc(Cl)ccc45)nn3)c(OC)c2)c(OC)c1"
tested_target = "Plasmodium falciparum"
qualitative_label = "Y"

[[record]]
smiles_notation = "COc1ccc(C(=O)/C=C/c2ccc(OCc3cn([C@H]4C[C@H](n5cc(C)c(=O)[nH]c5=O)O[C@@H]4CO)nn3)c(OC)c2)c(OC)c1"
tested_target = "Plasmodium falciparum"
qualitative_label = "Y"

[[record]]
smiles_notation = "Cc1cn([C@H]2C[C@H](N=[N+]=[N-])[C@@H](CO)O2)c(=O)[nH]c1=O"
tested_target = "Plasmodium falciparum"
qualitative_label = "N"

[[record]]
smiles_notation = "C#CCOc1ccc(C(=O)/C=C/c2ccc(F)cc2)cc1OC"
tested_target = "Plasmodium falciparum"
qualitative_label = "N"

[[record]]
smiles_notation = "COc1cc(C(=O)/C=C/c2ccc(OC)c(OC)c2OC)ccc1OCc1cn([C@H]2C[C@H](n3cc(C)c(=O)[nH]c3=O)O[C@@H]2CO)nn1"
tested_target = "Plasmodium falciparum"
qualitative_label = "Y"

[[record]]
smiles_notation = "COc1cc(C(=O)/C=C/c2ccc(F)cc2F)ccc1OCc1cn([C@H]2C[C@H](n3cc(C)c(=O)[nH]c3=O)O[C@@H]2CO)nn1"
tested_target = "Plasmodium falciparum"
qualitative_label = "Y"

[[record]]
smiles_notation = "COc1cc(/C=C/C(=O)/C=C/c2ccc(F)cc2)ccc1OCc1cn(-c2ccnc3cc(Cl)ccc23)nn1"
tested_target = "Plasmodium falciparum"
qualitative_label = "N"

[[record]]
smiles_notation = "C#CCOc1ccc(/C=C/C(=O)/C=C/c2ccc(F)cc2)cc1OC"
tested_target = "Plasmodium falciparum"
qualitative_label = "N"

[[record]]
smiles_notation = "COc1ccc(/C=C/C(=O)/C=C/c2ccc(OCc3cn(-c4ccnc5cc(Cl)ccc45)nn3)c(OC)c2)c(OC)c1"
tested_target = "Plasmodium falciparum"
qualitative_label = "N"

[[record]]
smiles_notation = "C#CCOc1ccc(C(=O)/C=C/c2ccc(Cl)cc2Cl)cc1OC"
tested_target = "Plasmodium falciparum"
qualitative_label = "Y"


====

- System: Plasmodium falciparum
- assay-procedure: Antimalarial activity against chloroquine-resistant Plasmodium falciparum W2 after 48 hrs by FACS analysis in presence of 10 % human serum
- Format: functional, organism-based
- reported-conditions: W2, 48 h
pIC50: −log10 of the molar value.
Listed below: pIC50 values for each entry.
parameter: pIC50

[[record]]
smiles_notation = "COc1cc(/C=C/C(=O)c2ccc(OC)c(OC)c2OC)ccc1OCc1cn(-c2ccnc3cc(Cl)ccc23)nn1"
tested_target = "Plasmodium falciparum"
parameter = "pIC50"
recorded_measurement = 6.22

[[record]]
smiles_notation = "COc1cc(C(=O)/C=C/c2ccc(Cl)cc2Cl)ccc1OCc1cn([C@H]2C[C@H](n3cc(C)c(=O)[nH]c3=O)O[C@@H]2CO)nn1"
tested_target = "Plasmodium falciparum"
parameter = "pIC50"
recorded_measurement = 5.08

[[record]]
smiles_notation = "C#CCOc1ccc(/C=C/C(=O)/C=C/c2ccc(OC)cc2OC)cc1OC"
tested_target = "Plasmodium falciparum"
parameter = "pIC50"
recorded_measurement = 4.72

[[record]]
smiles_notation = "COc1ccc(C(=O)/C=C/c2ccc(OCc3cn(-c4ccnc5cc(Cl)ccc45)nn3)c(OC)c2)c(OC)c1"
tested_target = "Plasmodium falciparum"
parameter = "pIC50"
recorded_measurement = 7.05

[[record]]
smiles_notation = "COc1cc(/C=C/C(=O)/C=C/c2ccc(Cl)cc2Cl)ccc1OCc1cn([C@H]2C[C@H](n3cc(C)c(=O)[nH]c3=O)O[C@@H]2CO)nn1"
tested_target = "Plasmodium falciparum"
parameter = "pIC50"
recorded_measurement = 5.04

[[record]]
smiles_notation = "COc1ccc(/C=C/C(=O)c2ccc(OCc3cn([C@H]4C[C@H](n5cc(C)c(=O)[nH]c5=O)O[C@@H]4CO)nn3)c(OC)c2)c(OC)c1"
tested_target = "Plasmodium falciparum"
parameter = "pIC50"
recorded_measurement = 5.05


====

- Tested on: Plasmodium falciparum
- assay-procedure: Antimalarial activity against chloroquine-sensitive Plasmodium falciparum D10 after 48 hrs
- Format: functional, organism-based
- reported-conditions: D10, 48 h
parameter: IC50

[[record]]
smiles_notation = "[N-]=[N+]=Nc1ccnc2cc(Cl)ccc12"
parameter = "IC50"
recorded_measurement = "> 20 µM"

[[record]]
smiles_notation = "C#CCOc1ccc(C(=O)/C=C/c2ccc(OC)cc2OC)cc1OC"
parameter = "IC50"
recorded_measurement = "> 20 µM"

[[record]]
smiles_notation = "C#CCOc1ccc(C(=O)/C=C/c2ccc(F)cc2F)cc1OC"
parameter = "IC50"
recorded_measurement = "> 20 µM"


====

- Test system: Plasmodium falciparum
- assay-procedure: Antimalarial activity against chloroquine-sensitive Plasmodium falciparum D10 after 48 hrs
- Type: functional, organism-based
- reported-conditions: D10, 48 h
Listed below: IC50 values for each entry.
parameter: IC50 (µM)

[[record]]
smiles_notation = "Clc1ccc2c(-n3cc(COc4ccccc4)nn3)ccnc2c1"
tested_target = "Plasmodium falciparum"
parameter = "IC50"
value_unit = "µM"
censoring_qualifier = ">"
recorded_measurement = 20

[[record]]
smiles_notation = "COc1ccc(C(=O)/C=C/c2ccc(OCc3cn([C@H]4C[C@H](n5cc(C)c(=O)[nH]c5=O)O[C@@H]4CO)nn3)c(OC)c2)c(OC)c1"
tested_target = "Plasmodium falciparum"
parameter = "IC50"
value_unit = "µM"
censoring_qualifier = "="
recorded_measurement = 1.5

[[record]]
smiles_notation = "COc1ccc(/C=C/C(=O)c2ccc(OCc3cn([C@H]4C[C@H](n5cc(C)c(=O)[nH]c5=O)O[C@@H]4CO)nn3)c(OC)c2)c(OC)c1"
tested_target = "Plasmodium falciparum"
parameter = "IC50"
value_unit = "µM"
censoring_qualifier = "="
recorded_measurement = 10.2

[[record]]
smiles_notation = "C#CCOc1ccc(/C=C/C(=O)/C=C/c2ccc(OC)cc2OC)cc1OC"
tested_target = "Plasmodium falciparum"
parameter = "IC50"
value_unit = "µM"
censoring_qualifier = "="
recorded_measurement = 5.4


====

- Tested on: Plasmodium falciparum
- assay-procedure: Antimalarial activity against chloroquine-resistant Plasmodium falciparum W2 after 48 hrs by FACS analysis in presence of 10 % human serum
- Type: functional, organism-based
- reported-conditions: W2, 48 h
Listed below: IC50 values for each entry.
parameter: IC50

[[record]]
smiles_notation = "COc1cc(/C=C/C(=O)/C=C/c2ccc(OC)c(OC)c2OC)ccc1OCc1cn([C@H]2C[C@H](n3cc(C)c(=O)[nH]c3=O)O[C@@H]2CO)nn1"
tested_target = "Plasmodium falciparum"
recorded_measurement = "8.3 µM"

[[record]]
smiles_notation = "COc1ccc(C(=O)/C=C/c2ccc(OCc3cn([C@H]4C[C@H](n5cc(C)c(=O)[nH]c5=O)O[C@@H]4CO)nn3)c(OC)c2)cc1"
tested_target = "Plasmodium falciparum"
recorded_measurement = "8 µM"

[[record]]
smiles_notation = "COc1cc(/C=C/C(=O)/C=C/c2ccc(F)cc2F)ccc1OCc1cn([C@H]2C[C@H](n3cc(C)c(=O)[nH]c3=O)O[C@@H]2CO)nn1"
tested_target = "Plasmodium falciparum"
recorded_measurement = "12.4 µM"

